target: PD-1/PD-L1 (Homo sapiens); construct: made in house; host or cells: HEK293T; assay: PD-1/PD-L1 Homogenous Time-Resolved Fluorescence (HTRF) binding assay; settings: PD-L1-His 10 nM, PD-1-Ig 20 nM; value given as range class; read-out: Range or IC50
Sequence (Q9NZQ7 with tags, fused parts or gaps): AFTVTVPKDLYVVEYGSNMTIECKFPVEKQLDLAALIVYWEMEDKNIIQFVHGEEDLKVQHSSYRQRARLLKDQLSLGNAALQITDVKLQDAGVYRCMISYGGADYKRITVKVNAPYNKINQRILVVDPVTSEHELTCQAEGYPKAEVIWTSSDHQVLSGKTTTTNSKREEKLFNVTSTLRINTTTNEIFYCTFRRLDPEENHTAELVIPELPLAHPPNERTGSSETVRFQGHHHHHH
Below is a list of entries, each paired with its recorded IC50 value.
REPORTED METRIC: IC50

compound="Cc1ccc(OCCCN2CC[C@@H](O)C2)c(C)c1-c1cccc(COc2cc(OCc3cncc(C#N)c3)c(C=O)cc2Cl)c1C [Example 3027]" test_value="10 to 100 nM"
compound="Cc1c(COc2cc(OCc3cncc(C#N)c3)c(CN[C@@H](CCCNC(=N)N)C(=O)O)cc2Cl)cccc1-c1cccc(OCCCN2CCC(O)C2)c1 (stereo in doubt) [Example 3002]" test_value="0.21 to 10 nM"
compound="Cc1c(COc2cc(OCc3cncc(C#N)c3)c(CNC(CO)CO)cc2Cl)cccc1-c1cccc(OCCCN(C)C[C@H](O)CO)c1Cl [Example 2050]" test_value="0.21 to 10 nM"
compound="Cc1c(COc2cc(OCc3cncc(C#N)c3)c(CN3CCCC[C@H]3C(=O)O)cc2Cl)cccc1-c1cccc(O[C@@H](C)CCN2CC[C@@H](O)C2)c1Cl [Example 1522]" test_value="0.21 to 10 nM"
compound="CC(=O)NC1CCN(CCCOc2cccc(-c3cccc(COc4cc(OCc5cncc(C#N)c5)c(CN(CCC(F)(F)F)C(CO)CO)cc4Cl)c3C)c2Cl)CC1 [Example 2073]" test_value="0.21 to 10 nM"
